- Tested on: AncSZ;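 also: 11-residue human phosphosite peptides and single-mutation variants displayed on the E. coli surface, counted by deep sequencing, each peptide's frequency after selection divided by its frequency in the unselected input library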;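 also: frequency after pTyr selection over input frequency; kinase dosed for 20-30% of maximal phosphorylation in three min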
- assaySummary: phosphorylation enrichment, bacterial display (enrichment ratio); higher = better substrate or ligand; peptides without Tyr show the background
I would appreciate it if you labelled entries MET when phosphorylation enrichment is 1 or higher, otherwise NOT MET.

Previously resolved entries follow.
LIFVSYDDWDF [GRIN2A_Y281_S278F_YF]
MET
TSFSGYRFHRH [NKAPL_Y94_YF]
NOT MET
YLEEEYVKAVG [TF_Y674_G671E]
MET
YETSHYLASPD [CTNND2_Y1217_P1218L]
MET
EEVKAYLDFRE [CHAC2_Y78]
MET
LAARFYNWVCF [FLT4_Y1231_S1235C_YF]
MET
HNVPIYEGFGL [ACTA1_Y168_A172G_YF]
MET
QRIHDYFEHRF [HCN4_Y554_YF]
MET
TFSPPYYHRNC [HGD_Y333_R330S]
NOT MET
QSSEGYDLGDR [KIAA1210_Y564_G565D]
MET

**Query** Could you tell me if the measured phosphorylation enrichment of KGSEGYLAATY [NF1_Y2503] reaches 1 or more?
**Result** NOT MET

**Query** Textbook exercise: given the entry KAIMTYVSSFF [ACTN4_Y260_YF] , state whether its phosphorylation enrichment is greater than or equal to 1.
**Result** NOT MET

**Query** Does phosphorylation enrichment meet or surpass 1 for GFFDLYGGEKF [PTPN11_Y66_D61G_YF] ?
**Result** NOT MET

**Query** Determine whether measured phosphorylation enrichment meets or exceeds 1 for SQPASYQRRLL [PPIG_Y320]
**Result** NOT MET

**Query** Evaluate QVQQIYSDSDL [MIB1_Y376_R371Q] : phosphorylation enrichment at minimum 1?
**Result** MET

**Query** Say whether AKKKMYSRKTK [AGXT_Y231] shows phosphorylation enrichment of 1 or more.
**Result** NOT MET

**Query** Textbook exercise: given the entry CSKRFYQLTKL [AR_Y858_R855K] , state whether its phosphorylation enrichment is greater than or equal to 1.
**Result** NOT MET

**Query** Could you please find out whether SLALFYRNVFH [RBL1_Y792_K794N_YF] has phosphorylation enrichment that meets 1 or exceeds it?
**Result** NOT MET

**Query** Given KPPPTYESEEE [BRD4_Y599] , state whether its phosphorylation enrichment is at least 1.
**Result** MET

**Query** Please tell me: is the sequence PIAPVYAPSMV [ACAT1_Y331_A333P] at or over 1 in terms of phosphorylation enrichment?
**Result** MET
